Where these numbers come from: PubChem BioAssay (NCI)

System: SR leukemia
EXPERIMENT NOTES: NCI tumour cell line growth inhibition, 48 h; in the data active = GI50 below about 0.43 µM; inactive = the rest
Outcome field: choose from class 1 = active, class 0 = inactive

# lookup: test call for `COc1nc2ccccc2cc1-c1nc2c(cnn2-c2ccc(Br)cc2)c(=O)[nH]1`
class 1

What classification did `NS(=O)(=O)c1ccc(N=Nc2c(O)[nH]c3ccc(-c4cnco4)cc23)cc1` end up with in this test?
class 0

In this assay, the call recorded for `CC(=O)[O-].CCN(CC)c1ccc(C=NCCN=Cc2ccc(N(CC)CC)cc2[O-])c([O-])c1.[Mn+3]` was what?
class 0

Could you check what this test reported for `COC(=O)[C@@H](C)CNS(=O)(=O)N(c1cc(C(F)(F)F)cc(C(F)(F)F)c1)C1CCN(Cc2ccc(F)cc2)CC1` ?
class 0

What classification did `O=C(NC1=CC(=O)c2ccccc2C1=O)c1ccccc1` end up with in this test?
class 0

----------
System: KM12 colon
EXPERIMENT NOTES: NCI tumour cell line growth inhibition, 48 h
Field: TGI. Provide a value for each of the compounds that follow.

Give a short answer stating reported TGI for `O=S(=O)(N=S(c1ccccc1)c1ccccc1)c1ccccc1` .
> 100 µM

Give TGI for the following compound: CC(=O)OCC12C(=O)C[C@@H](C)C3(CC(c4ccoc4)OC3=O)C1CCC(OC(C)=O)C21CO1 (stereo not given in full)
> 100 µM

Annotate the compound COC(=O)/C(=N\Nc1nnc(C)n1N)C(C#N)c1ccc(Cl)cc1 (stereo not given) with its measured TGI.
> 100 µM

Give reported TGI value for `Cc1ccc(N=Nc2c(O)ccc3cc(S(=O)(=O)O)cc(S(=O)(=O)O)c23)cc1`
> 100 µM

Output measured TGI for this item: `O=C1OC(c2ccccc2)=N/C1=C\c1cccc2ccccc12`
> 100 µM

Entry Cn1c(=O)c(C(c2ccc([N+](=O)[O-])cc2)c2c(O)c3ccccc3n(C)c2=O)cc2ccccc21 (stereo not given) needs its TGI filled in; supply it.
> 100 µM

Find the measured TGI of `N#C/C(=C1C=C(Br)/C(=N\O)C=C\1Cl)c1cccc2ccccc12` and report it.
19.4 µM

Let me know recorded TGI for `Oc1ccc(-c2nc(-c3cccnc3)c(-c3ccc(Cl)cc3)[nH]2)cc1` , thanks.
25.7 µM

For the compound O=C1CSC(c2cccc(Oc3ccccc3)c2)N1c1ccc(Cl)cc1 (stereo not given) , report TGI.
> 100 µM

Supply TGI value. Item: O=C1/C(=C/c2ccc([N+](=O)[O-])cc2)C(=O)N(c2ccccc2)C1c1ccccc1 (stereo not given)
> 10 µM

----------
System: SNB-75 CNS
EXPERIMENT NOTES: NCI tumour cell line growth inhibition, 48 h
For each entry below, report its TGI value.

Respond only with TGI recorded for `CC(C)(C)c1ccc2c(c1)S(=O)(=O)Nc1ccccc1NS(=O)(=O)c1cc(C(C)(C)C)ccc1OCCOCCOCCO2`
> 100 µM

Provide TGI value for the following compound: `COc1cc2ncnc(Nc3ccc(C)c(O)c3)c2cc1OC`
> 24 µM

Indicate its recorded TGI; the compound in question is `CCOC(=O)c1nc2ccc(C(F)(F)F)cc2nc1NCc1cc(OC)c(OC)c(OC)c1`
90.6 µM

Supply TGI value. Item: `COc1ccc(/C=C/c2ccnc3ccccc23)c(OC)c1`
> 10 µM

Look up and report measured TGI for this entry: `NN/C(=N\S(=O)(=O)c1cc2ccccc2s1)Nc1ccc(Cl)cc1`
38.7 µM

Answer with reported TGI of `Oc1c(CN2CCOCC2)ccc2cccnc12`
> 10 µM
